Source: PubChem BioAssay

- protocolText: stimulators of insulin release from INS-1E, primary screen, cell-based, 5 mM glucose, NPC library (AID 1117329); also: reference of the scale not given here
- condition: rat INS-1E insulin secretion, at 10 µM, hits give high values
Consider the following molecules; for each one, report its insulin secretion stimulation.
Output spec: scalar in %, unitless text.

Q. Please look up its insulin secretion stimulation: Cc1nc2c([nH]1)c(=O)n(C)c(=O)n2Cc1ccco1
A. 5.4

Q. Please look up its insulin secretion stimulation: CCc1cc(Cl)c(OC)c(C(=O)NC[C@@H]2CCCN2CC)c1O
A. 5.2

Q. Please look up its insulin secretion stimulation: CN(C(=O)CN(CCO)CC(=O)N(C)C(C)(C)Cc1ccccc1)C(C)(C)Cc1ccccc1
A. 1.4

Q. Please look up its insulin secretion stimulation: CC(C)(C)c1ccc(C(O)CCCN2CCC(C(O)(c3ccccc3)c3ccccc3)CC2)cc1 (stereo not given)
A. 5.9

Q. Please look up its insulin secretion stimulation: CCCCOc1cc(C(=O)OCCN(CC)CC)ccc1N
A. 50.7

* * *

- protocolText: stimulators of insulin release from INS-1E, primary screen, cell-based, 5 mM glucose, NPC library (AID 1117329); also: reference of the scale not given here
- condition: rat INS-1E insulin secretion, at 10 µM
Active and inactive are the calls of the source.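 How the source made its calls: active means compound raises insulin release from rat beta cells at 5 mM glucose, no numeric limit stated; inactive means the rest.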
API: response.call in Y = active, N = inactive

Q. Hi, sorry to bother you, what did the test record for CCCCCCCCCCCCCCCC(=O)OCC=C(C)C=CC=C(C)C=CC1=C(C)CCCC1(C)C ?
A. N

Q. Hi, sorry to bother you, what did the test record for NC(=O)Cc1cccc(C(=O)c2ccccc2)c1N ?
A. N

Q. Hi, sorry to bother you, what did the test record for O=C(O)C(=O)Nc1cccc(-c2nn[nH]n2)c1 ?
A. N

Q. Hi, sorry to bother you, what did the test record for CC[C@H](C)[C@H](N)C(=O)O ?
A. N

Q. Hi, sorry to bother you, what did the test record for CN1CCN(c2c(F)cc3c(=O)c(C(=O)O)cn4c3c2OCN4C)CC1 ?
A. N

Q. Hi, sorry to bother you, what did the test record for CCC1NC(=O)c2cc(S(N)(=O)=O)c(Cl)cc2N1 (stereo unspecified) ?
A. N

Q. Hi, sorry to bother you, what did the test record for COCCCN1CCC(NC(=O)c2cc(Cl)c(N)c3c2OCC3)CC1 ?
A. N

Q. Hi, sorry to bother you, what did the test record for OC(CCCN1CCCCC1)(c1ccccc1)c1ccccc1 ?
A. Y

Q. Hi, sorry to bother you, what did the test record for CC1(C)[C@@H]2CC[C@@]1(C)C(=O)C2 ?
A. N

Q. Hi, sorry to bother you, what did the test record for O=C(OCCO)c1ccccc1O ?
A. N

Q. Hi, sorry to bother you, what did the test record for CCOc1cc(NC(C)=O)ccc1C(=O)OC ?
A. N

* * *

- targetOfAssay: L-lactate dehydrogenase (Plasmodium falciparum (isolate CDC / Honduras))
- protocolText: PfLDH activity inhibition – cell lysate, 3D7 strain, counter-screen for P. falciparum growth inhibition project (AID 2304);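 also: 0% = vehicle and 100% = reference inhibitor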
- condition: P. falciparum 3D7 crude extract, LDH APAD/NBT absorbance; at 2 µM; hits give high values
readoutKind: inhibition (%)
Output spec: scalar in %, unitless text.

Q. Please look up its inhibition: COc1ccc(Cn2c(SCc3ccc(C)cc3)nc3cc(OC)c(OC)cc3c2=N)cc1Cl
A. 5

Q. Please look up its inhibition: Oc1ccc(OCc2ccccn2)cc1
A. 2

Q. Please look up its inhibition: CN1CCC(C(=O)Nc2ccc(-c3cccc(-c4nc5ccc(C(F)(F)F)cc5[nH]4)c3)cc2)CC1
A. 0

Q. Please look up its inhibition: CC(C)C1CCc2nc(N)nc(N)c2C1 (stereo unspecified)
A. -5

Q. Please look up its inhibition: N#Cc1cccc(NC(=O)Nc2ccc(-c3cccc(-c4nc5ccc(F)cc5[nH]4)c3)cc2)c1
A. 4

Q. Please look up its inhibition: O=C1Nc2cccc3c2C1(CCCCN1CCC(c2cc4ccncc4[nH]2)CC1)CCC3 (stereo unspecified)
A. -3

Q. Please look up its inhibition: O=C(/C=C/c1ccc(Cl)c(Cl)c1)NCCCCCN1CCC(NC(=O)Nc2cccc(C(F)(F)F)c2)CC1
A. 4

Q. Please look up its inhibition: O=C(Nc1ccc(CN2CCN(S(=O)(=O)c3ccc(Cl)s3)CC2)cc1)c1cccs1
A. 2

Q. Please look up its inhibition: CN(C)CCCN(C)C(=O)c1cc2cc(-c3ccccc3)ccc2n1S(=O)(=O)c1ccccc1
A. -1

Q. Please look up its inhibition: O=C(/C=C/c1ccc(Cl)c(Cl)c1)NCCCCCN1CCCN(C(=O)Nc2cccc(F)c2)CC1
A. -3

Q. Please look up its inhibition: Clc1ccc2c(NN=Cc3cccnc3)ccnc2c1
A. 3

Q. Please look up its inhibition: CC1(C)N=C(N)N=C(N)N1OCCCCOc1ccccc1
A. -1

Q. Please look up its inhibition: CC(CN(C)C)C(=O)Nc1ccc(-c2cccc(-c3nc4ccccc4[nH]3)c2)cc1 (stereo unspecified)
A. 4

Q. Please look up its inhibition: Cc1sc2ccc(Cl)cc2c1S(=O)(=O)Nc1ccc2nccc(N3C[C@@H](C)N[C@@H](C)C3)c2c1
A. 0

Q. Please look up its inhibition: CC(=O)N/N=C/[C@H](CCc1ccccc1)NC(=O)[C@H](CC(C)C)NC(=O)c1ccc(OCCN2CCOCC2)cc1
A. -9

Q. Please look up its inhibition: O=C(Nc1cccc(C(F)(F)F)c1)Nc1ccc(Cl)c(Cl)c1
A. -4

* * *

- protocolText: viability rescue of complex I mutant cybrids, primary screen, cell-based, galactose medium, ATP luminescence (AID 1645843);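 also: positive z means more ATP and so rescue of galactose-driven cybrid death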
- condition: complex I mutant cybrid cells, 72 h, hits give high values
Please note: condition met applies when z-score is 0.3 or greater, and condition not met applies otherwise.

Q. Check this molecule for z-score at or above 0.3: O=C(O)/C=C/c1ccc(O)c(O)c1
A. condition not met

Q. Check this molecule for z-score at or above 0.3: COc1c(C)c2c(c(O)c1C/C=C(\C)CCC(=O)OCCN1CCOCC1)C(=O)OC2
A. condition met

Q. Check this molecule for z-score at or above 0.3: CC1CCc2c(N3CCC(O)CC3)c(F)cc3c(=O)c(C(=O)O)cn1c23 (configuration not stated)
A. condition met

Q. Check this molecule for z-score at or above 0.3: NC(N)=NCCCCN=C(N)N
A. condition met

Q. Check this molecule for z-score at or above 0.3: COc1ccc2cccc(CCNC(C)=O)c2c1
A. condition not met

Q. Check this molecule for z-score at or above 0.3: COc1cc2c(c(OC)c1OC)-c1ccc(OC)c(=O)cc1C(NC(C)=O)CC2 (configuration not stated)
A. condition not met

Q. Check this molecule for z-score at or above 0.3: Cn1c(=O)[nH]c2ncn(C)c2c1=O
A. condition met

Q. Check this molecule for z-score at or above 0.3: CN(C)CCCOc1nn(Cc2ccccc2)c2ccccc12
A. condition not met

Q. Check this molecule for z-score at or above 0.3: CCCCCCCCCCCC1=C(O)C(=O)C=C(O)C1=O
A. condition not met

Q. Check this molecule for z-score at or above 0.3: Cl/C(=C\n1cncn1)c1ccc(Cl)cc1Cl
A. condition not met

Q. Check this molecule for z-score at or above 0.3: O=c1[nH]c2cc(C(F)(F)F)c(N3CCOCC3)cc2n(CP(=O)(O)O)c1=O
A. condition not met

Q. Check this molecule for z-score at or above 0.3: O=C(O)CN(CCN(CC(=O)O)CC(=O)O)CCN(CC(=O)O)CC(=O)O
A. condition met

* * *

- protocolText: CellTiter-Glo luminescent readout of SW480 viability loss, NPC library primary (AID 1117343)
- condition: CellTiter-Glo luminescence; at 20 µM (top of the series) unless noted
readoutKind: viability decrease (inhibition) (%)
Output spec: scalar in %, unitless text.

Q. Please look up its viability decrease (inhibition): O=c1[nH]c(=O)c2[nH]c(=O)[nH]c2[nH]1
A. -9.2

Q. Please look up its viability decrease (inhibition): CCOC(=O)/C=C(C)/C=C/C=C(C)/C=C/c1c(C)cc(OC)c(C)c1C
A. 60.3

Q. Please look up its viability decrease (inhibition): COC(=O)C1=C(C)NC(C)=C(C(=O)OCCN(C)Cc2ccccc2)C1c1cccc([N+](=O)[O-])c1 (stereo not given)
A. 126

Q. Please look up its viability decrease (inhibition): CC1(C)[C@@H](OC(=O)CCC(=O)O)CC[C@]2(C)[C@H]3C(=O)C=C4[C@@H]5C[C@@](C)(C(=O)O)CC[C@]5(C)CC[C@@]4(C)[C@]3(C)CC[C@@H]12
A. 15.1

Q. Please look up its viability decrease (inhibition): CCOc1ccccc1OCC1CNCCO1 (stereo not given)
A. -7.1

Q. Please look up its viability decrease (inhibition): CCCCCCCCCCCCCCCCCCCCCCO
A. 16.6

Q. Please look up its viability decrease (inhibition): NC(=O)c1cc[n+](CC2=C(C(=O)[O-])N3C(=O)[C@@H](NC(=O)Cc4cccs4)[C@H]3SC2)cc1
A. 3.4

Q. Please look up its viability decrease (inhibition): Clc1ccc(C(Cn2ccnc2)OCc2c(Cl)cccc2Cl)c(Cl)c1 (stereo not given)
A. 132

Q. Please look up its viability decrease (inhibition): CCCCN1C[C@H](O)[C@@H](O)[C@H](O)[C@H]1CO
A. 23.4

Q. Please look up its viability decrease (inhibition): O=S(=O)(O)Oc1ccc(C(c2ccc(OS(=O)(=O)O)cc2)c2ccccn2)cc1
A. -2.2

Q. Please look up its viability decrease (inhibition): C[N+](C)(C)CCOC(=O)CCC(=O)OCC[N+](C)(C)C
A. -16.3

Q. Please look up its viability decrease (inhibition): CN1CC[C@H](c2c(O)cc(O)c3c(=O)cc(-c4ccccc4Cl)oc23)[C@H](O)C1
A. 62.3

Q. Please look up its viability decrease (inhibition): CC(=O)NCCCS(=O)(=O)O
A. 4.2

Q. Please look up its viability decrease (inhibition): CC(C)OC(=O)C(C)(C)Oc1ccc(C(=O)c2ccc(Cl)cc2)cc1
A. 75.1

Q. Please look up its viability decrease (inhibition): O=c1[nH]c(=O)n([C@H]2CCCO2)cc1F
A. 13.4

Q. Please look up its viability decrease (inhibition): CCC(=O)c1ccc(O)cc1
A. 60.1

Q. Please look up its viability decrease (inhibition): O=C(Nc1cccc2c(=O)cc(-c3nn[nH]n3)oc12)c1ccc(OCCCCc2ccccc2)cc1
A. 125

Q. Please look up its viability decrease (inhibition): CC[N+](CC)(CC)CCOc1ccc(/C=C/c2ccccc2)cc1
A. -6

Q. Please look up its viability decrease (inhibition): O=C1NCCN1CCN1CCC(c2cn(-c3ccc(F)cc3)c3ccc(Cl)cc23)CC1
A. 103

Q. Please look up its viability decrease (inhibition): CCCCc1cc2ccccc2c(OCCN(C)C)n1
A. 72.1

Q. Please look up its viability decrease (inhibition): O=C(O)CN(CCOCCOCCN(CC(=O)O)CC(=O)O)CC(=O)O
A. -13.8

Q. Please look up its viability decrease (inhibition): O=C1OC2(c3ccccc31)c1cc(I)c(O)c(I)c1Oc1c2cc(I)c(O)c1I
A. 24.4

Q. Please look up its viability decrease (inhibition): CC1CC(OC(=O)c2ccccc2O)CC(C)(C)C1 (stereo not given)
A. 6

Q. Please look up its viability decrease (inhibition): FCOC(C(F)(F)F)C(F)(F)F
A. -3.5

Q. Please look up its viability decrease (inhibition): O=c1[nH]c(=O)n([C@H]2C[C@H](O)[C@@H](CO)O2)cc1Br
A. 18.4

Q. Please look up its viability decrease (inhibition): CCn1cc(C(=O)O)c(=O)c2ccc(C)nc21
A. 30.9

Q. Please look up its viability decrease (inhibition): O=C(O)Cn1c(C(=O)Nc2nc(-c3ccccc3Cl)cs2)cc2ccccc21
A. 102

Q. Please look up its viability decrease (inhibition): C[C@@]12C(=O)OC(=O)[C@]1(C)C1CCC2O1
A. 112

Q. Please look up its viability decrease (inhibition): COCCCOc1ccnc(CS(=O)c2nc3ccccc3[nH]2)c1C (stereo not given)
A. 4.6

Q. Please look up its viability decrease (inhibition): CS(=O)(=O)CCNCc1ccc(-c2ccc3ncnc(Nc4ccc(OCc5cccc(F)c5)c(Cl)c4)c3c2)o1
A. 129

Q. Please look up its viability decrease (inhibition): O=C1OC2(c3ccc(O)cc3Oc3cc(O)ccc32)c2ccccc21
A. 16

Q. Please look up its viability decrease (inhibition): O=C1c2ccccc2S(=O)(=O)N1CCCCN1CCN(c2ncccn2)CC1
A. -2.4

Q. Please look up its viability decrease (inhibition): CC1(C)CCC(C)(C)c2cc(NC(=O)c3ccc(C(=O)O)cc3)ccc21
A. 47.9

Q. Please look up its viability decrease (inhibition): COc1ccc(O)cc1
A. 88.2

Q. Please look up its viability decrease (inhibition): Cn1cc(S(C)=O)c(=O)c2ccc(F)cc21 (stereo not given)
A. -1.3

Q. Please look up its viability decrease (inhibition): CCn1ccnc1CC1COc2ccccc2O1 (stereo not given)
A. 7.7

Q. Please look up its viability decrease (inhibition): COCCCN1CCC(NC(=O)c2cc(Cl)c(N)c3c2OCC3)CC1
A. -13.9

Q. Please look up its viability decrease (inhibition): O=P(O)(O)OC(CO)CO
A. -2

Q. Please look up its viability decrease (inhibition): COc1cc2c(c(OC)c1OC)-c1ccc(OC)c(=O)cc1[C@@H](NC(C)=O)CC2
A. 43.3

Q. Please look up its viability decrease (inhibition): CCN(CC)CCNC(=O)c1c(C)[nH]c(/C=C2\C(=O)Nc3ccc(F)cc32)c1C
A. 127

Q. Please look up its viability decrease (inhibition): N[C@@H](Cc1c[nH]c2ccc(O)cc12)C(=O)O
A. -17.1

Q. Please look up its viability decrease (inhibition): Cc1cc(NS(=O)(=O)c2ccc(N)cc2)no1
A. -7.9

Q. Please look up its viability decrease (inhibition): COc1ccc(-c2nc3ccc(C4=NNC(=O)CC4C)cc3[nH]2)cc1 (stereo not given)
A. 43

Q. Please look up its viability decrease (inhibition): COP(=O)(OC)OC(c1ccc(Cl)cc1)P(=O)(OC)OC (stereo not given)
A. -1

Q. Please look up its viability decrease (inhibition): CCCCOCCOCCOCc1cc2c(cc1CCC)OCO2
A. 11.6
